Reported values of GI50 for individual entries
# Test system: WM-266-4
# experimental_protocol: Cell growth inhibition assay (MTS)
# Type: cell-based
# test_parameters: Homo sapiens; WM-266-4, 72 hours

compound	system	relation_operator	GI50 [nM]
O=S(=O)(c1ccc(F)cc1)N1CCC(Nc2nccc(-c3c(-c4cccc(O)c4)nc4occn34)n2)CC1 [Compound 9]	WM-266-4	<	0.4
Cn1ccc(S(=O)(=O)N2CCC[C@@H](Nc3nccc(-c4c(-c5cccc(O)c5)nc5sccn45)n3)C2)n1 [Compound 14]	WM-266-4	=	5
Cn1ccc(S(=O)(=O)N2CCC[C@@H](Nc3nccc(-c4c(-c5cccc(O)c5)nc5occn45)n3)C2)n1 [Compound 17]	WM-266-4	=	0.6
O=S(=O)(c1ccc(Cl)cc1)N1CCC[C@@H](Nc2nccc(-c3c(-c4cccc(O)c4)nc4occn34)n2)C1 [Compound 4]	WM-266-4	=	15
